Source listed as patent US11746100B2.

- System: human ferroportin (Homo sapiens)
- Construct: luciferase reporter (read with the Nano-Glo Luciferase Assay System); expressed in transfected cells; host or cells: CHO cells, stably transfected, expression induced with doxycycline
- Procedure text: Biological in-vitro ferroportin internalization assay (luciferase reporter)
- Format: cell-based
- Experimental conditions: average pEC50; stably-transfected CHO cell line expressing human ferroportin tagged to a luciferase reporter; 6 h incubation with test compound
Quantity: pEC50

C[C@H](C(=O)NC(C)(C)C)N(C)c1nc(-c2ccccn2)nc2c1CCC2 | 7.5
CN(CC(=O)NC(C)(C)C)c1nc(-c2ccc(F)cn2)nc2c1CCC2 | 6.1
CN(C)CCOc1ccnc(-c2nc3c(c(N(C)CC(=O)Nc4cccc(F)c4)n2)CCC3)c1 | 7.9
COc1cnc(-c2nc3c(c(N(C)CC(=O)NC(C)(C)C)n2)CCC3)cn1 | 5.8
CN(CC(=O)NC(C)(C)C)c1cc(-c2ccccn2)nc2c1CCC2 | 6.6
CN(CC(=O)NC(C)(C)C)c1nc(-c2nccn2C)nc2c1CCC2 | 5.7
Cc1ncc(NC(=O)CN(C)c2nc(-c3cc(OCCO)ccn3)nc3c2CCC3)cn1 | 7.3
CC(C)NC(=O)[C@H](C)N(C)c1nc(-c2cc(OCCN(C)C)ccn2)nc2c1CCC2 | 7.4
CC[C@@H](O)COc1ccnc(-c2nc3c(c(N(C)CC(=O)NC(C)(C)C)n2)CCC3)c1 | 8.1
COc1ccnc(-c2nc3c(c(N(C)CC(=O)N[C@@H]4CCC[C@H]4O)n2)CCC3)c1 (relative stereo) | 7.5
COc1cc(-c2nc3c(c(N(C)CC(=O)NC(C)(C)C)n2)CCC3)ncc1C | 6.5
COc1ccc(NC(=O)CN(C)c2nc(-c3cc4ccncc4cn3)nc3c2CCC3)cn1 | 6
C[C@H]1C[C@@H](Oc2ccnc(-c3nc4c(c(N(C)CC(=O)NC(C)(C)C)n3)CCC4)c2)CN1C | 8.2
COCC(C)(C)NC(=O)CN(C)c1nc(-c2cc(OC)ccn2)nc2c1CCC2 | 7.5

----------
- System: human ferroportin (Homo sapiens, UniProt Q9NP59)
- Construct: luciferase reporter (read with the Nano-Glo Luciferase Assay System); expressed in transfected cells; host or cells: CHO cells, stably transfected, expression induced with doxycycline
- Sequence (Q9NP59 whole entry): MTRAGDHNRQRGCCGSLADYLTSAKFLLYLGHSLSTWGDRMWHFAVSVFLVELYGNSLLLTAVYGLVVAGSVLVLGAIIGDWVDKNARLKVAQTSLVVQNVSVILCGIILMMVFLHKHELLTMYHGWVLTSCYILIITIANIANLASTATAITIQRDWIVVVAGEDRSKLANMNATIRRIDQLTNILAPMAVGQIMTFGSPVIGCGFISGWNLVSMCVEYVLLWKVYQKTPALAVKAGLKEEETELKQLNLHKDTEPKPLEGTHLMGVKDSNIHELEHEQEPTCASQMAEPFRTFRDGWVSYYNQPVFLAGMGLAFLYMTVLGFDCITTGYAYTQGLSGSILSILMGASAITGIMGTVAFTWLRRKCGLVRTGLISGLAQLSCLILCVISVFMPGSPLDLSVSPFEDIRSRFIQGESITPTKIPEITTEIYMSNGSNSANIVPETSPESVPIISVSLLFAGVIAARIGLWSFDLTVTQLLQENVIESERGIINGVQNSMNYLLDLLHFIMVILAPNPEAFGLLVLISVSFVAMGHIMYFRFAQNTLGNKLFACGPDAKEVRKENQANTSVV
- Procedure text: Biological in-vitro ferroportin internalization assay (luciferase reporter)
- Assay type: cell-based
- Experimental conditions: average pEC50; stably-transfected CHO cell line expressing human ferroportin tagged to a luciferase reporter; 6 h incubation with test compound
Quantity: pEC50

COc1ccc(NC(=O)CN(C)c2nc(-c3cc4ccccc4cn3)nc3c2CCC3)cn1 [Compound 227] | 7.2
CN(Cc1ncn(-c2cccc(F)c2)n1)c1nc(-c2cc(OCCO)ccn2)nc2c1CCC2 [Compound 351] | 7.6
CN(C)CCOc1ccnc(-c2nc3c(c(N(C)CC(=O)NC(C)(C)C)n2)CC(C)(C)C3)c1 [Compound 454] | 7.9
CCC(C)(CC)NC(=O)CN(C)c1nc(-c2cc(OCCO)ccn2)nc2c1CCC2 [Compound 392] | 8.3
CN(CC(=O)Nc1ccn(C)n1)c1nc(-c2cc3cn[nH]c3cn2)nc2c1CCC2 [Compound 232] | 7
CCOc1ccnc(-c2nc3c(c(N(C)CC(=O)Nc4ccc(OC)nc4)n2)CCC3)c1 [Compound 223] | 7.8
CCN(CC)CCOc1ccnc(-c2nc3c(c(N(C)CC(=O)NC(C)(C)C)n2)CCC3)c1 [Compound 400] | 8.2
CN(CC(=O)NC1CCOCC1)c1nc(-c2ccccn2)nc2c1CCC2 [Compound 79] | 6.5
COc1ccnc(-c2nc3c(c(N(C)CC(=O)N[C@H](C)CO)n2)CCC3)c1 [Compound 458] | 7.3
CN(CC(=O)NC(C)(C)CCO)c1nc(-c2ccccn2)nc2c1CCC2 [Compound 63] | 7.2
CN(c1nc(-c2ccccn2)nc2c1CCC2)[C@@H](CO)C(=O)NC(C)(C)C [Compound 123] | 7.2
C[C@H](CO)Oc1ccnc(-c2nc3c(c(N(C)CC(=O)NC(C)(C)C)n2)CCC3)c1 [Compound 384] | 8.1
CN(C)CCOc1ccnc(-c2nc3c(c(N(C)CC(=O)N[C@@H]4CCOC4)n2)CCC3)c1 [Compound 424] | 7
COc1ccnc(-c2nc3c(c(N(C)CC(=O)Nc4cnn(C)c4)n2)CCC3)c1 [Compound 154] | 7.4
CN(CC(=O)Nc1cccc(F)c1)c1nc(-c2cn(C)cn2)nc2c1CCC2 [Compound 271] | 7.4
CC(C)NC(=O)CN(C)c1nc(-c2cc(OCC3(O)CC3)ccn2)nc2c1CCC2 [Compound 431] | 7.4
COc1ccc(NC(=O)CN(C)c2nc(-c3cc(OC4COC4)ccn3)nc3c2CCC3)cn1 [Compound 253] | 7.6
CN(CC(=O)Nc1ccc(F)nc1)c1nc(-c2cc(OC(F)F)ccn2)nc2c1CCC2 [Compound 216] | 6.6
CC(C)NC(=O)CN(C)c1nc(-c2cc(OCCN3CCOCC3)ccn2)nc2c1CCC2 [Compound 430] | 8
CN(CC(=O)NC1(C(F)(F)F)CC1)c1nc(-c2cc(OCC(C)(C)N(C)C)ccn2)nc2c1CCC2 [Compound 423] | 7.7
C[C@@H](C(=O)NC(C)(C)C)N(C)c1nc(-c2ccccn2)nc2c1CCC2 [Compound 52] | 6.8
CN(CC(=O)Nc1ccc(F)cc1)c1nc(-c2cn(C)cn2)nc2c1CCC2 [Compound 202] | 7.5
CC[C@H](O)COc1ccnc(-c2nc3c(c(N(C)CC(=O)NC(C)(C)C)n2)CCC3)c1 [Compound 394] | 8.3
CC(C)NC(=O)CN(C)c1nc(-c2cc(OCC3(O)CCOCC3)ccn2)nc2c1CCC2 [Compound 444] | 7.9
COc1ccc(NC(=O)CN(C)c2nc(-c3cc(OC(F)F)ccn3)nc3c2CCC3)cn1 [Compound 225] | 6.8
COc1ccnc(-c2nc3c(c(N(C)CC(=O)N[C@@H]4CCCC[C@@H]4O)n2)CCC3)c1 (stereo in doubt) [Compound 168] | 7.3
